Target: GlcNAc(b1-2)[GlcNAc(b1-6)]Man(a1-6)[GlcNAc(b1-2)Man(a1-3)]Man(b1-4)GlcNAc(b1-4)GlcNAc
Test: glycan array binding signal (z-score within array); higher = stronger binding
Details: glycan notation: IUPAC condensed, linker removed
Many of the other results were omitted from the sample, so the strongest signals are more common in it than they were.
Listed binders paired with reported glycan array binding signal (z-score)

# BINDER, glycan array binding signal (z-score)
rows = [
    ("SJCP3842 (Schistosoma japonicum) (protein) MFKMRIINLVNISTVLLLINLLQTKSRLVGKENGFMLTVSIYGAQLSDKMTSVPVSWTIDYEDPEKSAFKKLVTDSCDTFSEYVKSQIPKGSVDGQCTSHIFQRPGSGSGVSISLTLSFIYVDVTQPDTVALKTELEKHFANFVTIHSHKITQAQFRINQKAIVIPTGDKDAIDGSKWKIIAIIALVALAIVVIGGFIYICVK", -0.597),
    ("GNAT (Pseudomonas aeruginosa), Q9HV14 (protein) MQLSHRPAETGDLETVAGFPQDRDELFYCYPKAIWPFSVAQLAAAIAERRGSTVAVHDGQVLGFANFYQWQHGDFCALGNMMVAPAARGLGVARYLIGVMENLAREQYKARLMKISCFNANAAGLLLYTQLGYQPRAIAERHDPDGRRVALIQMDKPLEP", -0.257),
    ("AFCNVH (Aspergillus fumigatus) (protein) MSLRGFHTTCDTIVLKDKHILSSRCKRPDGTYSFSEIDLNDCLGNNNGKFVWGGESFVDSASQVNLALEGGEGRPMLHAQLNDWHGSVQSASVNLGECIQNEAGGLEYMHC", -0.203),
]
